Recorded CC50 at 48 h, one value per entry.
# PROTOCOL_DESCRIPTION: Cell viability MTT assay in Vero E6 cells
# Type: cell-based
# TEST_SETTINGS: African green monkey
QUANTITY: CC50 at 48 h

COMPOUND	QUANTITY	MEASURED_VALUE
CC(N)C(=O)OCN1C(=O)N/C(=C\c2cnn3c(NC4CC4)cc(Nc4cc(Cl)ccc4F)nc23)C1=O (centres unmarked)	CC50 at 48 h	> 205 µM
O=C1NC(=O)/C(=C/c2cnn3c(NC4CC4)cc(Nc4cc(Cl)ccc4F)nc23)N1	CC50 at 48 h	> 61.3 µM

* * *

# PROTOCOL_DESCRIPTION: Cell viability MTT assay in HuS-E/2 cells
# Format: cell-based
# TEST_SETTINGS: human; HuS-E/2 cells, 48 h, MTT, 0-320 μM; read-out: CC50

COMPOUND	CC50 at 48 h
O=C(O)c1ccc2c(c1)nc(Nc1cccc(Cl)c1)c1ccncc12 [SH-001, Silmitasertib]	> 195 µM

* * *

# Test system: HDV
# PROTOCOL_DESCRIPTION: Inhibition of HDV infection/replication in HuS-E/2 cells (HDV RNA by real-time PCR)
# TEST_SETTINGS: Hepatitis delta virus, HuS-E/2, read-out: IC50 (HDV RNA)
pIC50: −log10 of the molar value.
Recorded pIC50, one value per entry.

MOLECULE	pIC50
O=C(O)c1ccc2c(c1)nc(Nc1cccc(Cl)c1)c1ccncc12	~6.84
O=C1NC(=O)/C(=C/c2cnn3c(NC4CC4)cc(Nc4cc(Cl)ccc4F)nc23)N1	~7.16

* * *

# PROTOCOL_DESCRIPTION: Cell viability MTT assay in Vero E6 cells
# Type: cell-based
# TEST_SETTINGS: African green monkey; VeroE6 cells, 48 h, MTT, 0-320 μM; read-out: CC50
# Description: HepG2.2.15 and HuS-E/2 cells were seeded at 1×10^4 cells/well in a 96-well plate for 20 h, then the cells were treated with the tested compounds at various concentration (0-500 μM) for 48 h. […] The MTT-formazan crystals formed by metabolically viable cells were dissolved in 70 μl of DMSO, and the absorbance at 550 nm was measured on a microplate reader. […]

MOLECULE	CC50 at 48 h
O=C(O)c1ccc2c(c1)nc(Nc1cccc(Cl)c1)c1ccncc12	> 205 µM
